biological target: ALK2 (Mus musculus); construct: The C2C12 cell line was selected for the measurement of ALK2 activity using BMP6 as the agonist; host or cells: C2C12; test: HTRF pSMAD1 cell-based ALK2 assay (C2C12 cells, BMP6 as agonist); conditions: cell-based assay, BMP6; read-out: Cell IC50 BMP6
Sequence (P37172 21-509): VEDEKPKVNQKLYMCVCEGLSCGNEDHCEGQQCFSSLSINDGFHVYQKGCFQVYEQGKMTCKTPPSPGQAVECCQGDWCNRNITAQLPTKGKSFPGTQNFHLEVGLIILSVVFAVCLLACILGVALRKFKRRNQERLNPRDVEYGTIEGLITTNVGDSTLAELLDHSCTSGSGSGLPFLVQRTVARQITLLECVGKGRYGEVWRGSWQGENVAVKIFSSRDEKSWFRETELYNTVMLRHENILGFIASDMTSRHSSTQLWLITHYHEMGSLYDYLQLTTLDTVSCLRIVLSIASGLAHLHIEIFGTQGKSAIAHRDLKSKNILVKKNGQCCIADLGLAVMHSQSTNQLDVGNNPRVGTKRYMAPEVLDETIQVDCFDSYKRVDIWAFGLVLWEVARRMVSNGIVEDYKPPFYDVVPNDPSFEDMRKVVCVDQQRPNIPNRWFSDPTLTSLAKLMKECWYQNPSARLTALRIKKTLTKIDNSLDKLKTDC
ENDPOINT_NAME: log10 of IC50 (log10 of the value in µM)
Response schema: value (number) is log10 of IC50 in units of µM.

CCS(=O)(=O)c1cccc(-c2cnn3cc(-c4ccc(CCN5CCCCC5)cc4)cnc23)c1 [Compound 106]    -2.66
CN(C)CCc1ccc(-c2cnc3c(-c4ccc(S(N)(=O)=O)c5ccccc45)cnn3c2)cc1 [Compound 68]    -0.02
C[C@@H]1CNC[C@H](C)N1c1ccc(-c2cnc3c(-c4ccc(N)c(S(N)(=O)=O)c4)cnn3c2)cc1 [Compound 85]    -0.96
C[C@@H]1CNC[C@H](C)N1c1ccc(-c2cnc3c(-c4cccc(C(C)(C)O)c4)cnn3c2)cc1 [Compound 103]    -1.74
C[C@@H]1CNC[C@H](C)N1c1ccc(-c2cnc3c(-c4ccc(S(N)(=O)=O)c(N)c4)cnn3c2)cc1 [Compound 57]    -0.12

If you can, please state the reported log10 of IC50 value of CN1CCC(c2ccc(-c3cnc4c(-c5ccc(S(N)(=O)=O)c6ccccc56)cnn4c3)cc2)CC1 [Compound 80] .
0.27

Quick check: log10 of IC50 of C[C@@H]1CNC[C@H](C)N1c1ccc(-c2cnc3c(-c4ccc(N)c5ccccc45)cnn3c2)cc1 [Compound 59] ?
-0.55

* * *

Recorded pIC50 by entry
biological target: ALK5 (Homo sapiens); assay: TR-FRET enzymatic ALK kinase assay, ALK5
The scale used: pIC50 is minus the common logarithm of the concentration in molar units.

CC(=O)c1cccc2c(-c3cnn4cc(-c5ccc(N6[C@H](C)CNC[C@@H]6C)cc5)cnc34)cccc12    4.57

Reported pIC50 for C[C@@H]1CNC[C@H](C)N1c1ccc(-c2cnc3c(-c4ccc(C(=O)C(F)(F)F)c5ccccc45)cnn3c2)cc1 : what is it?
4.64

Bench note: what pIC50 did C[C@@H]1CNC[C@H](C)N1c1ccc(-c2cnc3c(-c4ccc(C#N)c5ccccc45)cnn3c2)cc1 show?
3.82

* * *

target: ALK1 (Homo sapiens, UniProt P37023); assay: TR-FRET enzymatic ALK kinase assay, ALK1
Sequence (P37023 22-503): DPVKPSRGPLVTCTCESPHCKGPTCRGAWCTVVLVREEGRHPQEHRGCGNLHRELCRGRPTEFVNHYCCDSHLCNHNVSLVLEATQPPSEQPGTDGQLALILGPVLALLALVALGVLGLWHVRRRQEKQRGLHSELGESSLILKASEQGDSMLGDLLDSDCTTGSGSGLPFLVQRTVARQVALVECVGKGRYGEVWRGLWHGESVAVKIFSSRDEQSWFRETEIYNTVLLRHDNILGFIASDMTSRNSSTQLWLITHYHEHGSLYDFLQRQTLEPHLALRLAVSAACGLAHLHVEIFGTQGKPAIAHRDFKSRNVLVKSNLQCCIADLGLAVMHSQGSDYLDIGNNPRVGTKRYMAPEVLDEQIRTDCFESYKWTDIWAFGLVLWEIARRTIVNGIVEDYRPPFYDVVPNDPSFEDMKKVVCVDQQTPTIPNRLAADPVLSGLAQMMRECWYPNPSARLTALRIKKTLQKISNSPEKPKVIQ
Please note: IC50 exactly at 200 nM is no (0). Only values below 200 nM get yes (1).

Example cases with answers are listed next.
N=C(N)c1ccc(-c2cnn3cc(-c4ccc(N5CCNCC5)cc4)cnc23)c2ccccc12 [Compound 16]    no (0)
CNC(=O)c1ccc(-c2cnn3cc(-c4ccc(N5CCNCC5)cc4)cnc23)c2ccccc12 [Compound 3]    no (0)

IC50 under 200 nM? Item: CS(=O)(=O)c1cccc(-c2cnn3cc(-c4ccc(OC5(CN6CCCC6)CC5)cc4)cnc23)c1 [Compound 170]
no (0)

Hello, I'm reviewing records and need to know if IC50 of CNS(=O)(=O)c1cccc(-c2cnn3cc(-c4ccc(N5[C@H](C)CNC[C@@H]5C)cc4)cnc23)c1 [Compound 76] is below 200 nM. Could you check?
yes (1)

* * *

A collection of molecules and their measured IC50
molecular target: ALK5 (Homo sapiens, UniProt P36897); experiment: TR-FRET enzymatic ALK kinase assay, ALK5
Sequence (P36897 34-503): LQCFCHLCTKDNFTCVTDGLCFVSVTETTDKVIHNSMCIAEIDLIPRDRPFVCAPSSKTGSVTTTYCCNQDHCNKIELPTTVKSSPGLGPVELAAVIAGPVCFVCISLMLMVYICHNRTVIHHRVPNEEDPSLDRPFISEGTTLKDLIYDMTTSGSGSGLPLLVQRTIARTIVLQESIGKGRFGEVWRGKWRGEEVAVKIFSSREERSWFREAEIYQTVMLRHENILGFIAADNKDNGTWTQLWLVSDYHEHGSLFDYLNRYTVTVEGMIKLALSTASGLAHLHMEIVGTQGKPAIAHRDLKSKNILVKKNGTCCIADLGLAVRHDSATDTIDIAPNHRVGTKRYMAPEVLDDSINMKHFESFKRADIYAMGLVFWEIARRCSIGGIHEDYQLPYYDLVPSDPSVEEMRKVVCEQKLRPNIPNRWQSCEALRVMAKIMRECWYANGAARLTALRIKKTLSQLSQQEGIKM

Would you please look over these solved cases?
CS(=O)(=O)c1cccc(-c2cnn3cc(-c4ccc(OC5(CN6CCC(O)C6)CC5)cc4)cnc23)c1 (stereo not shown) [Compound 195]    > 10 µM
C[C@H](O)c1cccc(-c2cnn3cc(-c4ccc(OCCN5CCCC5)cc4)cnc23)c1 [Compound 200]    > 10 µM
CC(O)c1cccc(-c2cnn3cc(-c4ccc(OC5(CN6CCCCC6)CC5)cc4)cnc23)c1 (stereo not shown) [Compound 143]    > 10 µM

For the molecule shown here, CC(O)c1cccc(-c2cnn3cc(-c4ccc(OC5(CN6CCOCC6)CC5)cc4)cnc23)c1 (stereo not shown) [Compound 177] , give the reported IC50.
> 10 µM

What measured IC50 goes with C[C@H](O)c1cccc(-c2cnn3cc(-c4ccc(OCCN5CCCCC5)cc4)cnc23)c1 [Compound 201] ?
> 10 µM

Would you mind telling me what IC50 value was observed for NC(c1cccc(-c2cnn3cc(-c4ccc(OC5(CN6CCC(O)C6)CC5)cc4)cnc23)c1)C(F)(F)F (stereo not shown) [Compound 182] ?
> 10 µM

IC50 lookup needed for C[C@@H]1CNC[C@H](C)N1c1ccc(-c2cnc3c(-c4cccc(CO)c4)cnn3c2)cc1 [Compound 74] , thanks.
> 10 µM

Looking for the measured IC50 of C[C@@H]1CNC[C@H](C)N1c1ccc(-c2cnc3c(-c4cccc(C(C)(C)O)c4)cnn3c2)cc1 [Compound 103] , can you help?
> 10 µM

What does the data say about its IC50? Entry: Cc1ccc([S+](=O)([O-])C(F)(F)F)cc1-c1cnn2cc(-c3ccc(N4[C@H](C)CNC[C@@H]4C)cc3)cnc12 [Compound 107]
> 10 µM
